experiment_summary: Plasma pharmacokinetics of BIA 10-2474 and metabolites
Format: in vivo, human
run_conditions: both, human, plasma, oral, drug half-life in plasma
value_kind: half-life

IN: Given the molecule CN(C(=O)n1cnc(-c2ccc[n+]([O-])c2)c1)C1CCCCC1 , what is its reported half-life?
OUT: 360 to 600 min

---

experiment_summary: Plasma pharmacokinetics of BIA 10-2474 and metabolites
Format: in vivo, human
run_conditions: human, plasma, oral, 5 mg, t1/2, single dose 5 mg
value_kind: half-life (h)
Numeric only. Scale: h

IN: Given the molecule CN(C(=O)n1cnc(-c2ccc[n+]([O-])c2)c1)C1CCCCC1 , what is its reported half-life?
OUT: 6.57

---

experiment_summary: Plasma pharmacokinetics of BIA 10-2474 and metabolites
Format: in vivo, human
run_conditions: human, plasma, oral, 20 mg, CL, 20 mg once daily, Day 10
value_kind: clearance

IN: Given the compound CN(C(=O)n1cnc(-c2ccc[n+]([O-])c2)c1)C1CCCCC1 [BIA 10-2474] , what is its reported clearance?
OUT: 72.2 mL/min

---

experiment_summary: Plasma pharmacokinetics of BIA 10-2474 and metabolites
Format: in vivo, human
run_conditions: both, human, plasma, oral, 100 mg, CL, single dose 100 mg
value_kind: clearance (mL/min)
Numeric only. Scale: mL/min

IN: Given the compound CN(C(=O)n1cnc(-c2ccc[n+]([O-])c2)c1)C1CCCCC1 , what is its reported clearance?
OUT: 75.2

---

experiment_summary: Plasma pharmacokinetics of BIA 10-2474 and metabolites
Assay type: in vivo, human
run_conditions: both, human, plasma, oral, 40 mg, t1/2, single dose 40 mg
value_kind: half-life (h)
Numeric only. Scale: h

IN: Given the molecule CN(C(=O)n1cnc(-c2ccc[n+]([O-])c2)c1)C1CCCCC1 [BIA 10-2474] , what is its reported half-life?
OUT: 7.84

---

experiment_summary: Plasma pharmacokinetics of BIA 10-2474 and metabolites
Type: in vivo, human
run_conditions: human, plasma, oral, 10 mg, Cmax, 10 mg once daily, Day 1
value_kind: Cmax (ng/mL)
Numeric only. Scale: ng/mL

IN: Given the compound CN(C(=O)n1cnc(-c2ccc[n+]([O-])c2)c1)C1CCCCC1 [BIA 10-2474] , what is its reported Cmax?
OUT: 143

---

experiment_summary: Plasma pharmacokinetics of BIA 10-2474 and metabolites
Format: in vivo, human
run_conditions: human, plasma, oral, 2.5 mg, CL, 2.5 mg once daily, Day 1
value_kind: clearance (mL/min)
Numeric only. Scale: mL/min

IN: Given the compound CN(C(=O)n1cnc(-c2ccc[n+]([O-])c2)c1)C1CCCCC1 , what is its reported clearance?
OUT: 98.3

---

experiment_summary: Plasma pharmacokinetics of BIA 10-2474 and metabolites
Assay type: in vivo, human
run_conditions: human, plasma, oral, 10 mg, AUC0–t, 10 mg once daily, Day 1
value_kind: AUC(0-t) (ng·h/mL)
Numeric only. Scale: ng·h/mL

IN: Given the molecule CN(C(=O)n1cnc(-c2ccc[n+]([O-])c2)c1)C1CCCCC1 [BIA 10-2474] , what is its reported AUC(0-t)?
OUT: 1390

---

experiment_summary: Plasma pharmacokinetics of BIA 10-2474 and metabolites
Assay type: in vivo, human
run_conditions: human, plasma, oral, 10 mg, tmax, single dose 10 mg
value_kind: Tmax (h)
Numeric only. Scale: h

IN: Given the compound CN(C(=O)n1cnc(-c2ccc[n+]([O-])c2)c1)C1CCCCC1 [BIA 10-2474] , what is its reported Tmax?
OUT: 3

---

experiment_summary: Plasma pharmacokinetics of BIA 10-2474 and metabolites
Type: in vivo, human
run_conditions: human, plasma, oral, 2.5 mg, AUC0–t, 2.5 mg once daily, Day 1
value_kind: AUC(0-t) (ng·h/mL)
Numeric only. Scale: ng·h/mL

IN: Given the compound CN(C(=O)n1cnc(-c2ccc[n+]([O-])c2)c1)C1CCCCC1 , what is its reported AUC(0-t)?
OUT: 384

---

experiment_summary: Plasma pharmacokinetics of BIA 10-2474 and metabolites
Format: in vivo, human
run_conditions: human, plasma, oral, 10 mg, CL, 10 mg once daily, Day 1
value_kind: clearance

IN: Given the compound CN(C(=O)n1cnc(-c2ccc[n+]([O-])c2)c1)C1CCCCC1 [BIA 10-2474] , what is its reported clearance?
OUT: 116 mL/min

---

experiment_summary: Plasma pharmacokinetics of BIA 10-2474 and metabolites
Assay type: in vivo, human
run_conditions: human, plasma, oral, 2.5 mg, Cmax, 2.5 mg once daily, Day 1
value_kind: Cmax (ng/mL)
Numeric only. Scale: ng/mL

IN: Given the compound CN(C(=O)n1cnc(-c2ccc[n+]([O-])c2)c1)C1CCCCC1 [BIA 10-2474] , what is its reported Cmax?
OUT: 46

---

experiment_summary: Plasma pharmacokinetics of BIA 10-2474 and metabolites
Assay type: in vivo, human
run_conditions: both, human, plasma, oral, 2.5 mg
value_kind: AUC(0-inf) (ng·h/mL)
Numeric only. Scale: ng·h/mL

IN: Given the compound CN(C(=O)n1cnc(-c2ccc[n+]([O-])c2)c1)C1CCCCC1 , what is its reported AUC(0-inf)?
OUT: 338

---

experiment_summary: Plasma pharmacokinetics of BIA 10-2474 and metabolites
Format: in vivo, human
run_conditions: human, plasma, oral, 10 mg, CL, single dose 10 mg
value_kind: clearance (mL/min)
Numeric only. Scale: mL/min

IN: Given the molecule CN(C(=O)n1cnc(-c2ccc[n+]([O-])c2)c1)C1CCCCC1 , what is its reported clearance?
OUT: 112

---

experiment_summary: Plasma pharmacokinetics of BIA 10-2474 and metabolites
Format: in vivo, human
run_conditions: human, plasma, oral, 20 mg, t1/2, 20 mg once daily, Day 1
value_kind: half-life

IN: Given the compound CN(C(=O)n1cnc(-c2ccc[n+]([O-])c2)c1)C1CCCCC1 [BIA 10-2474] , what is its reported half-life?
OUT: 7.74 h

---

experiment_summary: Plasma pharmacokinetics of BIA 10-2474 and metabolites
Assay type: in vivo, human
run_conditions: human, plasma, oral, 20 mg, Cmax, 20 mg once daily, Day 10
value_kind: Cmax (ng/mL)
Numeric only. Scale: ng/mL

IN: Given the compound CN(C(=O)n1cnc(-c2ccc[n+]([O-])c2)c1)C1CCCCC1 , what is its reported Cmax?
OUT: 396

---

experiment_summary: Plasma pharmacokinetics of BIA 10-2474 and metabolites
Type: in vivo, human
run_conditions: both, human, plasma, oral, 2.5 mg, Cmax, single dose 2.5 mg
value_kind: Cmax (ng/mL)
Numeric only. Scale: ng/mL

IN: Given the compound CN(C(=O)n1cnc(-c2ccc[n+]([O-])c2)c1)C1CCCCC1 , what is its reported Cmax?
OUT: 31.2

---

experiment_summary: Plasma pharmacokinetics of BIA 10-2474 and metabolites
Assay type: in vivo, human
run_conditions: human, plasma, oral, 10 mg, Cmax, 10 mg once daily, Day 10
value_kind: Cmax (ng/mL)
Numeric only. Scale: ng/mL

IN: Given the molecule CN(C(=O)n1cnc(-c2ccc[n+]([O-])c2)c1)C1CCCCC1 , what is its reported Cmax?
OUT: 190

---

experiment_summary: Plasma pharmacokinetics of BIA 10-2474 and metabolites
Format: in vivo, human
run_conditions: human, plasma, oral, 20 mg, t1/2, single dose 20 mg
value_kind: half-life
Please state the value followed by its unit.

IN: Given the compound CN(C(=O)n1cnc(-c2ccc[n+]([O-])c2)c1)C1CCCCC1 , what is its reported half-life?
OUT: 522 min

---

experiment_summary: Plasma pharmacokinetics of BIA 10-2474 and metabolites
Type: in vivo, human
run_conditions: both, human, plasma, oral, 1.25 mg, Cmax, single dose 1.25 mg
value_kind: Cmax
Please state the value followed by its unit.

IN: Given the compound CN(C(=O)n1cnc(-c2ccc[n+]([O-])c2)c1)C1CCCCC1 [BIA 10-2474] , what is its reported Cmax?
OUT: 16.2 ng/mL

---

experiment_summary: Plasma pharmacokinetics of BIA 10-2474 and metabolites
Format: in vivo, human
run_conditions: both, human, plasma, oral, 1.25 mg, AUC0–t, single dose 1.25 mg
value_kind: AUC(0-t)
Please state the value followed by its unit.

IN: Given the compound CN(C(=O)n1cnc(-c2ccc[n+]([O-])c2)c1)C1CCCCC1 , what is its reported AUC(0-t)?
OUT: 98 ng·h/mL

---

experiment_summary: Plasma pharmacokinetics of BIA 10-2474 and metabolites
Format: in vivo, human
run_conditions: human, plasma, oral, 20 mg, t1/2, 20 mg once daily, Day 10
value_kind: half-life (h)
Numeric only. Scale: h

IN: Given the molecule CN(C(=O)n1cnc(-c2ccc[n+]([O-])c2)c1)C1CCCCC1 [BIA 10-2474] , what is its reported half-life?
OUT: 10.2

---

experiment_summary: Plasma pharmacokinetics of BIA 10-2474 and metabolites
Type: in vivo, human
run_conditions: human, plasma, oral, 20 mg, Cmax, single dose 20 mg
value_kind: Cmax (ng/mL)
Numeric only. Scale: ng/mL

IN: Given the molecule CN(C(=O)n1cnc(-c2ccc[n+]([O-])c2)c1)C1CCCCC1 , what is its reported Cmax?
OUT: 308
